system: L1210 leukemia ip in BDF1 mice, survival T/C; assay: NCI In Vivo Anticancer Drug Screen. Data for tumor model L1210 Leukemia (intraperitoneal) in B6D2F1 (BDF1) mice; details: endpoint: mean survival time; dose: 100.0 mg/kg/injection; schedule: Q01DX001 (ip); vehicle: saline; higher = longer survival
Toxic doses and inconclusive results are not listed.
# T/C listing for each entry below

Reference set (6 entries):
| compound | T/C |
| --- | --- |
| CNc1nc2c(N)ncnc2n1C1OC(CO)C(O)C1O (configuration not stated) | 110 % of control |
| CC1(C)CNC(=O)O1 | 108 % of control |
| COC(=O)c1cccc2c1C(Br)C(Br)c1ccccc1-2 (configuration not stated) | 101 % of control |
| Oc1ccc(Br)cc1Sc1cc(Br)ccc1O | 97 % of control |
| COc1ccc(C(CC(=O)O)c2ccccc2)cc1 (configuration not stated) | 94 % of control |
| COc1nc(=O)n(C2CCCO2)cc1I (configuration not stated) | 95 % of control |

Let us examine a further case.
Entry CCCCCCCCCCCCc1c2ccccc2cc2ccccc12 — recorded T/C = 97 % of control
